Tested on: adult S. mansoni worm pairs
experimentSummary: Screening of adult S. mansoni blood flukes (7-week worms), WHO-TDR motility scoring
Type: cell-based, Schistosoma mansoni
experimentalContext: 7-week worms, 72 hr, motility; 95% confidence interval; read-out: ADULT WORM EC50 Female
pEC50: −log10 of the molar value.
valueKind: pEC50

>>> measuredresult("CC(Br)C(=O)NC1CCSC1=O (stereo not shown)")
"< 5.00"

###

Test system: S. mansoni schistosomula
experimentSummary: Screening of S. mansoni schistosomula (Roboworm, motility and phenotype)
Format: cell-based, Schistosoma mansoni
experimentalContext: HepG2 CC50 / schistosomula motility EC50
# Selectivity index, schistosomula motility listing for each entry below
valueKind: Selectivity index, schistosomula motility

>>> measuredresult("O=C(CBr)NC1CCOC1=O (stereo not shown)")
11.5
>>> measuredresult("O=C(CBr)NC1CCSC1=O (stereo not shown)")
9.8
>>> measuredresult("CC(Br)C(=O)NC1CCSC1=O (stereo not shown)")
15.4
>>> measuredresult("O=C(CBr)N[C@@H]1CCOC1=O")
16.3

###

EC50 reference
Test system: adult S. mansoni worm pairs
experimentSummary: Screening of adult S. mansoni blood flukes (7-week worms), WHO-TDR motility scoring
Assay type: cell-based, Schistosoma mansoni
experimentalContext: Schistosoma mansoni, 7-week worms, 72 hr, motility; 95% confidence interval; read-out: ADULT WORM EC50 Male
valueKind: EC50

>>> measuredresult("CC(Br)C(=O)NC1CCOC1=O (centres unmarked) [Compound 2]")
"> 20 µM"
>>> measuredresult("CC(Br)C(=O)NC1CCSC1=O (centres unmarked) [Compound 4]")
"10.5 µM"
>>> measuredresult("O=C(CBr)N[C@@H]1CCOC1=O [Compound 5]")
"> 10 µM"
>>> measuredresult("O=C(CBr)NC1CCSC1=O (centres unmarked) [Compound 3]")
"4.2 µM"
>>> measuredresult("O=C(CBr)NC1CCOC1=O (centres unmarked) [Compound 1]")
"8.2 µM"

###

Test system: E. coli ATCC 25922
experimentSummary: Broth microdilution MIC and IC50 determination, E. coli
Format: cell-based
experimentalContext: Escherichia coli, ATCC25922, 24 h, value in square brackets; 24 hr
valueKind: MIC

>>> measuredresult("O=C(CBr)NC1CCSC1=O (stereo not shown)")
"262 µM"
>>> measuredresult("O=C(CBr)N[C@@H]1CCOC1=O")
"563 µM"
>>> measuredresult("O=C(CBr)N[C@H]1CCOC1=O")
"> 563 µM"
>>> measuredresult("O=C(CBr)NC1CCOC1=O (stereo not shown)")
"563 µM"

###

# CC50 at 24 h per entry
experimentSummary: Cell cytotoxicity assay (MTT)
Assay type: cell-based, human
experimentalContext: human, HepG2 cells, MTT, 95% confidence interval, called EC50
valueKind: CC50 at 24 h

>>> measuredresult("O=C(CBr)NC1CCSC1=O (centres unmarked) [Compound 3]")
"18.7 µM"
>>> measuredresult("O=C(CBr)N[C@H]1CCOC1=O [Compound 6]")
"> 100 µM"
>>> measuredresult("O=C(CBr)NC1CCOC1=O (centres unmarked) [Compound 1]")
"43.5 µM"
>>> measuredresult("CC(Br)C(=O)NC1CCOC1=O (centres unmarked) [Compound 2]")
"> 200 µM"
>>> measuredresult("O=C(CBr)N[C@@H]1CCOC1=O [Compound 5]")
"50.6 µM"
